Test system: L. major promastigotes
test-method-notes: L. major promastigote drug susceptibility assay (alamar blue, 384-well)
Assay type: cell-based, Leishmania major
assay-conditions: Leishmania major, 48 h; compounds from commercial supplier; 44 h + 4 h alamar blue, 28°C; read-out: L. major promastigote EC50 (AVE±SD) Confirmation Alamar Blue
observable: EC50

• N[C@H](C(=O)O)[C@@H]1CC(Cl)=NO1 [Acivicin, reference compound] = 6 nM
• CCN(CC)C(=S)SSC(=S)N(CC)CC [Disulfiram] = 500 nM
• C[C@@]1(CO)[C@H](O)CC[C@@]2(C)[C@H]1CC[C@H]1C[C@@H]3C[C@@]12CC[C@]3(O)CO [Aphidicolin, reference compound] = 220 nM
• C[C@@H]1[C@H](O)[C@@H](C)/C=C/C=C/C=C/C=C/C=C/C=C/C=C/[C@H](O[C@@H]2O[C@H](C)[C@@H](O)[C@H](N)[C@@H]2O)C[C@@H]2O[C@](O)(C[C@@H](O)C[C@@H](O)[C@H](O)CC[C@@H](O)C[C@@H](O)CC(=O)O[C@H]1C)C[C@H](O)[C@H]2C(=O)O [Amphotericin B, reference compound] = 210 nM

###

Tested on: L. major promastigotes
test-method-notes: Flow cytometer-based growth inhibition and cytotoxicity assay
assay-conditions: Leishmania major, 48 h, read-out: L. major promastigote EC50 (AVE±SD) Confirmation Flow Cytometry
observable: log10 EC50 (log10 of the value in nM)

* Cc1[nH]c2c(Cl)cccc2c(=O)c1CN1CCCC1 [CID 728862] | 3.25
* C[C@@H]1[C@H](O)[C@@H](C)/C=C/C=C/C=C/C=C/C=C/C=C/C=C/[C@H](O[C@@H]2O[C@H](C)[C@@H](O)[C@H](N)[C@@H]2O)C[C@@H]2O[C@](O)(C[C@@H](O)C[C@@H](O)[C@H](O)CC[C@@H](O)C[C@@H](O)CC(=O)O[C@H]1C)C[C@H](O)[C@H]2C(=O)O [Amphotericin B, reference compound] | 2.28
* CCN(CC)CCN(C)C1CCC(c2ccccc2)CC1 (stereo not shown) [CID 742546] | 2.63
* C[C@@]1(CO)[C@H](O)CC[C@@]2(C)[C@H]1CC[C@H]1C[C@@H]3C[C@@]12CC[C@]3(O)CO [Aphidicolin, reference compound] | 2.59
* Cc1ccc(OCCCCn2ccnc2)c(Cl)c1 [CID 2851545] | 2.53
* Cc1cc(C)nc(/N=C2\SNSC2Cl)c1 (stereo not shown) [CID 757789] | 3.29
* CC(C)(C)c1ccc(C(=O)C2CCCN(C3CCC3)C2)cc1 (stereo not shown) [CID 16187595] | 1.60

###

Test system: IMR-90
test-method-notes: Mammalian cell line specificity assay (alamar blue)
Assay type: cell-based, human
assay-conditions: Homo sapiens, IMR-90; 44–46 h, alamar blue; read-out: IMR90 EC50 (AVE±SD)
pEC50: −log10 of the molar value.
observable: pEC50

• C[C@@H]1[C@H](O)[C@@H](C)/C=C/C=C/C=C/C=C/C=C/C=C/C=C/[C@H](O[C@@H]2O[C@H](C)[C@@H](O)[C@H](N)[C@@H]2O)C[C@@H]2O[C@](O)(C[C@@H](O)C[C@@H](O)[C@H](O)CC[C@@H](O)C[C@@H](O)CC(=O)O[C@H]1C)C[C@H](O)[C@H]2C(=O)O [Amphotericin B, reference compound] = 5.06
• N[C@H](C(=O)O)[C@@H]1CC(Cl)=NO1 [Acivicin, reference compound] = 5.17
